Compiled from multiple publications: IC50 readings for UniProtKB P04150.
Sequence (P04150 whole entry): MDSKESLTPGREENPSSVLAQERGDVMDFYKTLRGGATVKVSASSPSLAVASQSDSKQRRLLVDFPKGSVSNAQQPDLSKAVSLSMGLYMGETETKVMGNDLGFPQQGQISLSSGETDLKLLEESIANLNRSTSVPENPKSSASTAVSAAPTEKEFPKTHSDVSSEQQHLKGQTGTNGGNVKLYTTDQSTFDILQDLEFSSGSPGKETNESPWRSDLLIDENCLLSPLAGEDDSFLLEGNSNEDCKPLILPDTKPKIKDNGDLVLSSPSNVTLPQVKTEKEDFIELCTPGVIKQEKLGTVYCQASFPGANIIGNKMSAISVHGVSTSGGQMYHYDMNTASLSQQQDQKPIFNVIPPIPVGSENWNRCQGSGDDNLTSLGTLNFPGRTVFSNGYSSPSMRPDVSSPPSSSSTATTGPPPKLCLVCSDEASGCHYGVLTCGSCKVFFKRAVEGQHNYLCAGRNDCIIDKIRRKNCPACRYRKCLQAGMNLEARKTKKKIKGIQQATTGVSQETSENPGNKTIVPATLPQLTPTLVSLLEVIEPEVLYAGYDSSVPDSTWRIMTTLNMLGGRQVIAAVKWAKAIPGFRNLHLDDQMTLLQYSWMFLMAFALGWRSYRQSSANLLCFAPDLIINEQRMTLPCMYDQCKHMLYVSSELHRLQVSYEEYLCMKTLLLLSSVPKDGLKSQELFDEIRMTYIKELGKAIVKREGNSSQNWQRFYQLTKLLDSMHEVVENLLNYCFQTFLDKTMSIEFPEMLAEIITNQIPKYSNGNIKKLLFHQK
assay readout: IC50 (nM)

compound	measured target	IC50 (nM)
CCN(CC(O)(CNC(=O)c1cnn(-c2ccc(F)cc2)c1N)C(F)(F)F)C(=O)c1cccc(F)c1Cl (racemic)	UniProtKB P04150	7.94
CC1=CC(C)(C)Nc2ccc3c(c21)/C(=C/c1ccccc1)Oc1ccc(F)cc1-3	UniProtKB P04150	2050
COc1ccc(F)cc1C(C)(C)CC(O)(Cc1ccc(C)cc1)C(F)(F)F (configuration not stated)	UniProtKB P04150	945
COC(=O)[C@H](C)NC(=O)O[C@]1(C(=O)CO)[C@@H](C)C[C@H]2[C@@H]3CCC4=CC(=O)C=C[C@]4(C)[C@@]3(F)[C@@H](O)C[C@@]21C	UniProtKB P04150	28.6
COc1ccccc1-c1ccc2c(c1)C(C(C)OC)=CC(C)(C)N2 (configuration not stated)	UniProtKB P04150	1060
CCN(CC(O)(CNc1cccc2c1cnn2-c1ccc(F)cc1)C(F)(F)F)C(=O)c1c(Cl)cccc1Cl (stereo in doubt; 38E1)	UniProtKB P04150	0.0794
COc1ccc(F)cc1C(C)(C)CC(O)(Cc1cccc2ccccc12)C(F)(F)F (configuration not stated)	UniProtKB P04150	120
CC1(C)O[C@@H]2CC3C4C[C@H](F)C5=CC(=O)C=C[C@]5(C)[C@@]4(F)[C@@H](O)C[C@]3(C)[C@]2(SC(CCO)C(=O)O)O1 (some centres not stated)	UniProtKB P04150	289
OC(c1ccc(F)cc1)c1ccc2c(cnn2-c2ccc(F)cc2)c1 (configuration not stated)	UniProtKB P04150	10000
CC(Cc1c[nH]c2ccccc12)NS(=O)(=O)c1cc(F)c(Br)cc1F (configuration not stated)	UniProtKB P04150	3600

[a] CC(C)(CC(O)(Cn1ccc(=O)c2ccccc21)C(F)(F)F)c1ccccc1O (configuration not stated)
[b] Cc1c(C#Cc2ccc(CN3CCC(CO)CC3)cc2)cc(C(F)F)c2cn(C(C(=O)Nc3nccs3)c3ncn4c3CCC43CC3)nc12 (configuration not stated)
input: Lowest IC50? choose a or b // output: label of the selected item
output: a
(a: 6 nM, b: 3200 nM)

[1] CCN(CC(O)(CNC(=O)c1cnn(-c2ccc(F)cc2)c1N)C(F)(F)F)C(=O)c1ccccc1 (stereo in doubt; 13b)
[2] COc1ccc(F)cc1C(C)(C)CC(O)(CCCc1ccccc1)C(F)(F)F (configuration not stated)
[3] CC(C)(CC(O)(C(=O)Nc1ccc2c(c1)COC2=O)C(F)(F)F)c1ccccc1 (configuration not stated)
input: Reorder: IC50, max to min. Please list each label once, in the requested order.
output: 2, 1, 3
